For each record, write down the corresponding inhibition.
target: NEDD8-activating enzyme E1 regulatory subunit (Homo sapiens) (UniProt Q13564); assay: Inhibition of NAE (unknown origin)-mediated neddylation assessed as suppression of cullin1-Nedd8 adduct formation at 25 uM preincubated for 10 mins followed by ATP addition and measured after 30 mins by immunoblot analysis relative to control; conditions: time 40.0 min
Answers are plain numbers, in %.

compound	targetOrSystem	resultUnits	inhibition
CCCNC(=O)c1cccc2nc(OCC)n(Cc3ccc(-c4ccccc4-c4nnn[nH]4)cc3)c12	NEDD8-activating enzyme E1 regulatory subunit (Homo sapiens) (UniProt Q13564)	%	32.6

Provide reported inhibition for each item, in the same order as listed.
1. CCOc1nc2cccc(C(=O)NCCc3ccc4c(c3)OCO4)c2n1Cc1ccc(-c2ccccc2-c2nnn[nH]2)cc1
2. CCOc1nc2cccc(C(=O)NCc3ccc(F)cc3)c2n1Cc1ccc(-c2ccccc2-c2nnn[nH]2)cc1

Reply:
1: 35.7; 2: 38.1

###

target: NEDD8-activating enzyme E1 regulatory subunit (Homo sapiens); experiment: Inhibition of NAE (unknown origin)-mediated neddylation assessed as suppression of cullin1-Nedd8 adduct formation at 25 uM preincubated for 10 mins followed by ATP addition and measured after 30 mins by immunoblot analysis relative to control; conditions: time 40.0 min
measuredMetric: inhibition (%)
One number for each entry, in %.

Reference set, count: 6
compound	measuredMetric	resultUnits	valueObserved
CCOc1nc2cccc(C(=O)NC3CC3)c2n1Cc1ccc(-c2ccccc2-c2nnn[nH]2)cc1	inhibition	%	30.9
CCOc1nc2cccc(C(=O)NCCc3cccc(OC)c3)c2n1Cc1ccc(-c2ccccc2-c2nnn[nH]2)cc1	inhibition	%	43.6
CCOc1nc2cccc(C(=O)NCCc3ccc(C)cc3)c2n1Cc1ccc(-c2ccccc2-c2nnn[nH]2)cc1	inhibition	%	32.1
CCOc1nc2cccc(C(=O)NCCCOC)c2n1Cc1ccc(-c2ccccc2-c2nnn[nH]2)cc1	inhibition	%	27.9
CCOc1nc2cccc(C(=O)OC(C)OC(=O)OC3CCCCC3)c2n1Cc1ccc(-c2ccccc2)cc1 (configuration not stated)	inhibition	%	29.5
CCOc1nc2cccc(C(=O)NCCCNC3CCCCC3)c2n1Cc1ccc(-c2ccccc2-c2nnn[nH]2)cc1	inhibition	%	29.4

// switching to the query compound
Task item: Please look at this compound and report its inhibition: CCOc1nc2cccc(C(=O)Nc3ccccc3)c2n1Cc1ccc(-c2ccccc2-c2nnn[nH]2)cc1
Reply: 34.6

###

Molecular target: NEDD8-activating enzyme E1 regulatory subunit (Homo sapiens)
Sequence (whole entry): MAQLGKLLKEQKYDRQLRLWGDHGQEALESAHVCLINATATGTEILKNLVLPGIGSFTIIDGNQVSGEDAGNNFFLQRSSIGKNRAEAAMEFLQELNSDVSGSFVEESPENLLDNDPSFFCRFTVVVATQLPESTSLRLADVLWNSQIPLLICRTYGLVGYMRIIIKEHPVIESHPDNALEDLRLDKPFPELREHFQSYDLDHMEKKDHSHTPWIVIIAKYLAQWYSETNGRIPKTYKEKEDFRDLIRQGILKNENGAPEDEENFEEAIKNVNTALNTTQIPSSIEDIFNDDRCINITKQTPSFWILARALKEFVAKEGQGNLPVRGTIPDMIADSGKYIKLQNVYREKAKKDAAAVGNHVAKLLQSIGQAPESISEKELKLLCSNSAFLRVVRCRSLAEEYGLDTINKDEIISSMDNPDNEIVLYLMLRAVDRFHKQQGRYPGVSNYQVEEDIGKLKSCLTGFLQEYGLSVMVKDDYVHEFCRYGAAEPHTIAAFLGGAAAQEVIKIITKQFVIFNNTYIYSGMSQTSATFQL
Experiment: Inhibition of NAE (unknown origin)-mediated neddylation assessed as suppression of cullin1-Nedd8 adduct formation at 25 uM preincubated for 10 mins followed by ATP addition and measured after 30 mins by immunoblot analysis relative to control
Details: time 40.0 min
Please map values of inhibition to classes as shown: low band (below 40%), middle band (40% to below 50%), high band (50% or more)

molecule	labelClass
CCOc1nc2cccc(C(=O)NC3CCCCC3)c2n1Cc1ccc(-c2ccccc2-c2nnn[nH]2)cc1	low band

Task item: Into which bin does this molecule go? CCOc1nc2cccc(C(=O)OC(C)OC(=O)OC3CCCCC3)c2n1Cc1ccc(-c2ccccc2-c2nnnn2C)cc1 (stereo unspecified)
Reply: middle band

Task item: Which inhibition category applies to CCOc1nc2cccc(C(=O)Nc3ccc(F)cc3)c2n1Cc1ccc(-c2ccccc2-c2nnn[nH]2)cc1 here?
Reply: middle band

Task item: Assign a category based on measured inhibition for CCOC(=O)CNC(=O)c1cccc2nc(OCC)n(Cc3ccc(-c4ccccc4-c4nnn[nH]4)cc3)c12 and give only the class name.
Reply: middle band

Task item: Input CCOc1nc2cccc(C(=O)NCCc3ccc(Cl)cc3Cl)c2n1Cc1ccc(-c2ccccc2-c2nnn[nH]2)cc1 ; output its category
Reply: high band

Task item: Class label required: CCOc1nc2cccc(C(=O)NCCc3ccc([N+](=O)[O-])cc3)c2n1Cc1ccc(-c2ccccc2-c2nnn[nH]2)cc1
Reply: middle band
